Value source: patent US20240173419A1

target: CDK2 (Homo sapiens, UniProt P24941); construct: endogenous in cells; host or cells: MKN1 cells; experiment: CDK2 degradation in MKN1 cells (AlphaLISA); type: cell-based; conditions: 14 h incubation
parameter.measured: CDK2 degradation 14 h: Average Dmax %

Previously resolved entries follow.
# molecule, parameter.measured, reading
measured = [
    ("Cc1cc(S(=O)(=O)NC2(C)CCC(CN3CCN(c4ccc(C5CCC(=O)NC5=O)cc4F)CC3)CC2)ccc1Nc1ncc(C(F)(F)F)c(N2CCC[C@](C)(O)C2)n1 (some centres unmarked) [I-803]", "CDK2 degradation 14 h: Average Dmax %", "A (A (>75% o))"),
    ("Cc1cc(S(=O)(=O)C2CC3(CCN(CC4CCN(c5cccc6c5n(C)c(=O)n6C5CCC(=O)NC5=O)CC4)CC3)C2)ccc1Nc1ncc2cc(Cl)c(=O)n(C3CCCC3)c2n1 (centres unmarked)", "CDK2 degradation 14 h: Average Dmax %", "A (A (>75% o))"),
    ("Cc1cc(S(=O)(=O)NC2CC3(CCN(CC4CCN(c5cccc6c5n(C)c(=O)n6C5CCC(=O)NC5=O)CC4)CC3)C2)ccc1Nc1ncc2cc(Cl)c(=O)n(C3CCCC3)c2n1 (centres unmarked)", "CDK2 degradation 14 h: Average Dmax %", "A (A (>75% o))"),
    ("Cc1cc(S(=O)(=O)NC2CC(N3CCN(CC4CCN(c5cccc(C6CCC(=O)NC6=O)c5)CC4)CC3)C2)ccc1Nc1ncc(C(F)(F)F)c(N2CCCC(C)(O)C2)n1 (centres unmarked)", "CDK2 degradation 14 h: Average Dmax %", "A (A (>75% o))"),
    ("Cc1cc(S(=O)(=O)NCCOCCOCCCc2ccc3c(c2)n(C)c(=O)n3C2CCC(=O)NC2=O)ccc1Nc1ncc2c(n1)N(C1CCCC1)C(=O)C21CC1 (centres unmarked)", "CDK2 degradation 14 h: Average Dmax %", "B (B (>50% -75%))"),
]

# input Using the record for Cc1cc(S(=O)(=O)C(C)(C)CCO[C@H]2CC[C@H](CN3CCC(c4ccc5c(c4)n(C)c(=O)n5C4CCC(=O)NC4=O)CC3)CC2)ccc1Nc1ncc2cc(Cl)c(=O)n(C3CCCC3)c2n1 (some centres unmarked) , report its CDK2 degradation 14 h: Average Dmax %.
# output A (A (>75% o))

# input Need CDK2 degradation 14 h: Average Dmax %, item Cc1cc(S(=O)(=O)NC(C)COC2CCC(CN3CC(c4ccc5c(c4F)n(C)c(=O)n5C4CCC(=O)NC4=O)C3)CC2)ccc1Nc1ncc(C(F)(F)F)c(N2CCCC(C)(O)C2)n1 (centres unmarked)
# output A (A (>75% o))

# input Request the reported CDK2 degradation 14 h: Average Dmax % associated with Cc1cc(S(=O)(=O)CCCO[C@H]2CC[C@H](CN3CCC(c4ccc5c(c4)n(C4CCC(=O)NC4=O)c(=O)n5C)CC3)CC2)ccc1Nc1nccc(-c2cnc(C)n2C(C)C)n1 (some centres unmarked)
# output B (B (>50% -75%))

# input Please give the measured CDK2 degradation 14 h: Average Dmax % for this molecule: Cc1cc(S(=O)(=O)NC2CCC(CN3CCN(c4ccc(C5CCC(=O)NC5=O)c(F)c4)CC3)CC2)c(F)cc1Nc1ncc(C(F)(F)F)c(N2CCCC(C)(O)C2)n1 (centres unmarked)
# output A (A (>75% o))
